Below: a set of entries, each annotated with reported pre-steady-state target cleavage rate.
System: MILI (PIWIL2) piRISC loaded with L1MC piRNA (26 nt);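 further: 1 nM active piRISC with 0.1 nM target library at 33 °C single turnover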
procedure text: pre-steady-state target cleavage rate (min^-1); guide: L1MC piRNA 5'p-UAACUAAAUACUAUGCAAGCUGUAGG; higher = faster piRNA-guided slicing of the target
condition parameters: auxiliary factor: 500 nM mouse GTSF1
outcome measure: pre-steady-state target cleavage rate

sequence chain: UCCUGGAUGUCGUUGCAUAGUAUUUAGGUUA
val: 0.152

sequence chain: UCCUGGAUGUCCUUGCAUAGUUUUUACUUA
val: 0.00658

sequence chain: UCCUGGUACAGCUUGCAUAGUAUUCAGUUA
val: 0.058

sequence chain: UCCUGGAUGAGCUUGCAUAGUAAUAAGUUA
val: 0.202

sequence chain: UCCUGCUACAGCUUGCAUAGUAUCUUAGUUA
val: 0.259

sequence chain: UCCUGCUACAGCUUGCAUAGUUUUAGUUA
val: 0.0113

sequence chain: UCCUGGAACACCUUGCAUAGUAUUUAGUAA
val: 0.17

sequence chain: UCCUGCUACAGCUUGGAUAGUAUUAAGUUA
val: 0.198

sequence chain: UCCUGGAUGUCGAUGCAUAGUACUUAGUUA
val: 0.025

sequence chain: UCCUGGAUCAGCUUGCAUAGUAUUAAGUAA
val: 0.178

sequence chain: UCCUGGAACACCUUGCAUUGUAUUUAGUUA
val: 0.14

sequence chain: UCCUGGAUGAGCUUGCAUAGUAUAUAGUAA
val: 0.163

sequence chain: UCCUGGAUGAGCUUGCAUAGUAUUUGAGUUA
val: 0.307

sequence chain: UCCUGCUACAUGCUUGCAUAGUAUUUAGUUA
val: 0.0998

sequence chain: UCCUCCUAGAGCUUGCAUACUAUUUAGUUA
val: 0.101

sequence chain: UCCUGGUACAGCUUGCAUAGAUUUUAGAAA
val: 0.00722

sequence chain: UCCUGGAACAGCUUCGUUAGUAUUUAGUAA
val: 0.115

sequence chain: UCCUGGAUCAGGUUGGAUAGUAUUUAGUUA
val: 0.164

sequence chain: UCCUGGAACAGCUUGCAUAGUAUUUAGUUA [g2:g23:cont:t1A]
val: 0.297

sequence chain: UCCUGCUAAGCUUGCAUAGUAUUUAGUUA
val: 0.182

sequence chain: UCCUCCUACAGCUUGCAAUGUAUUUUCAAA
val: 0.0219

sequence chain: UCCUCGUACAGCUUGCAUAGAAUUUAGUUA
val: 0.0473

sequence chain: UCCUGGUACACGUUGCAUAGUAUUUAGUUA
val: 0.19

sequence chain: UCCUGCUACAGCUUUGCAUAGUAUUUAGUUA
val: 0.263

sequence chain: UCCUGGAUGAGCUAGCAUAGUAUUUUGUUA
val: 0.159

sequence chain: UCCUCCUACACCAUGCAUAGUAUUUAGUUA
val: 0.243

sequence chain: UCCUGGAACAGCAUGCAUAGUAUUUUGUUA
val: 0.116

sequence chain: UCCUCCUACAGCUUGCUAUGUAUUUAGUAA
val: 0.021

sequence chain: UCCUGGUUACAGCUUGCAUAGUAUUUAGUUA
val: 0.256

sequence chain: UCCUGGAACAGCUUGCAUAGUAAUUACUUA
val: 0.023

sequence chain: UCCUGGAUGUCGAUGUAUAGUAUUUAGUUA
val: 0.0919

sequence chain: UCCUGGUACAGCUUGCAUAGUAUUUAAGUUA
val: 0.22

sequence chain: UCCUGCUAGUCCUUGCAUAGUAUUUAGUAA
val: 0.0749

sequence chain: UCCUGGAUGUCCAUGCAUAGUAUUAAGUUA
val: 0.0665

sequence chain: UCCUGGAUGUGCAAGCAUAGUAUUUAGAAA
val: 0.0135

sequence chain: UCCUCCUACUCGUUGCAUAGUAUUUUCAAA
val: 0.0494

sequence chain: UCCUGGUACACCUUGCAUACUAUUUAGUUA
val: 0.228

sequence chain: UCCUCCUACAGCUUGGAUAGUUUUUAGUUA
val: 0.0664

sequence chain: UCCUGGAUCAGCUUGCAUGGUAUUUAGUUA
val: 0.285

sequence chain: UCCUGGAUGUCCUUGCAUAGUAUUUUCAAA
val: 0.023

sequence chain: UCCUGGAUGUCGUUGCAUAGUAUUAAGUAA
val: 0.0273

sequence chain: UCCUGGAUGUCCUUGGAUAGUAUUUAGUAA
val: 0.121

sequence chain: UCCUCCUACAGCUUGCAUAGUUUUUACUUA
val: 0.036

sequence chain: UCCUGCUUGUGCUUGCAUAGUAUUUAGAAA
val: 0.0115

sequence chain: UCCUGGAUCAGCUUGCAUAGUAUUUUGUUA
val: 0.144

sequence chain: UCCUCCUACAGCUCGCAUAGUAUUUAGUUA
val: 0.288

sequence chain: UCCUGGUUGAGCUUGCAUAGUAUUUAGAAA
val: 0.0925

sequence chain: UCCUGGUACAGCUUGCUAAGUAUUUAGUUA
val: 0.123

sequence chain: UCCUGCUACAGCUUGCAUAGUAUAUACUUA
val: 0.0361

sequence chain: UCCUCCUACAGCUUGGAUAGUAUUUAGAAA
val: 0.0815

sequence chain: UCCUGCAACAGCUUGCAUUGUAUUUAGUUA
val: 0.262

sequence chain: UCCUGGAUGUCGUUGGCAUAGUAUUUAGUUA
val: 0.0621

sequence chain: UCCUGGAUCAGCUUGCAUUGUAAUUAGUUA
val: 0.097

sequence chain: UCCUGGUACAGCUUGCAUUGUAUUUACAAA
val: 0.0165

sequence chain: UCCUGGAUCUGCUUGCAUAGUAUUUACUUA
val: 0.0527

----------
System: MILI (PIWIL2) piRISC loaded with L1MC piRNA (26 nt);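 further: 1 nM active piRISC with 0.1 nM target library at 33 °C single turnover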
procedure text: pre-steady-state target cleavage rate (min^-1); guide: L1MC piRNA 5'p-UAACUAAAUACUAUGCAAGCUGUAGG; higher = faster piRNA-guided slicing of the target
condition parameters: auxiliary factor: none (no GTSF1)
In this section, each of the sequences is paired with its reported pre-steady-state target cleavage rate.

sequence chain: UCCUCCUACAGCUUGCAUAGUAUUUAGUUC [g2:g26:cont:t1C]
censor symbol: =
pre-steady-state target cleavage rate: 0.0143

sequence chain: UCCUGCUACAGCUUCCAAAGUAUUUAGUUA
censor symbol: =
pre-steady-state target cleavage rate: 0.00347

sequence chain: UCCUGGAUGUCGAACCAAAGUAUUUAGUAA
censor symbol: <
pre-steady-state target cleavage rate: 0.0001

sequence chain: UCCUGGAUGUCGUUGCAUACAAUUUAGUUA
censor symbol: =
pre-steady-state target cleavage rate: 0.00319

sequence chain: UCCUGGAUGUCCUUGCAUAGUAUUUAUUUA
censor symbol: =
pre-steady-state target cleavage rate: 0.00292

sequence chain: UCCUGGAUCAGCUUGCAUAGUAGUUUAGUUA
censor symbol: =
pre-steady-state target cleavage rate: 0.00969

sequence chain: UCCUGGAUCAGCUUGCUUAGUAUAUAGUUA
censor symbol: =
pre-steady-state target cleavage rate: 0.00803

sequence chain: UCCUGGAUCAGCUUGCUUUGUAUUUAGUUA
censor symbol: =
pre-steady-state target cleavage rate: 0.0038

sequence chain: UCCUGGUACAGCUUGGAAAGUAUUUAGUUA
censor symbol: =
pre-steady-state target cleavage rate: 0.00903

sequence chain: UCCUGGAUGUCGAUGCACAGUAUUUAGUUA
censor symbol: =
pre-steady-state target cleavage rate: 0.00443

sequence chain: UCCUGCUACAGCUUGGAUAGUUUUUAGUUA
censor symbol: =
pre-steady-state target cleavage rate: 0.00289

sequence chain: UCCUGGUACAGCUCGCAUAGUAUUUAGUUA
censor symbol: =
pre-steady-state target cleavage rate: 0.0138

sequence chain: UCCUGCUACAGCAUGCUUAGUAUUUAGUUA
censor symbol: =
pre-steady-state target cleavage rate: 0.00606

----------
Tested on: EfPiwi piRISC loaded with L1MC piRNA (26 nt)
procedure text: pre-steady-state target cleavage rate (min^-1); auxiliary factor: 500 nM Ephydatia muelleri Gtsf1; guide: L1MC piRNA 5'p-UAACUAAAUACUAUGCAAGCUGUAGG; MIWI and MILI are mouse PIWI proteins and EfPiwi is from a freshwater sponge; tags in brackets are library labels; higher = faster piRNA-guided slicing of the target
Outcome: true for pre-steady-state target cleavage rate of at least 0.006; false for anything lower.

sequence chain: UCCUCCUUCAGGUUGCAUAGUAUUUAGUUA
class name: true
--
sequence chain: UCCUGGAUGUCGAACGUUAGUAUGUUAGUUA
class name: false
--
sequence chain: UCCUGGAACAGCUUGCAUAGUAUUUGAGUUA
class name: false
--
sequence chain: UCCUGGUACGGCUUGCAUAGUAUUUAGUUA
class name: true
--
sequence chain: UCCUGCUACAGCUUGCAUAGUAUUUAAGUUA
class name: true
--
sequence chain: UCCUCCUACAGCUUGCAUAGUAAUUAGAUA
class name: false
--
sequence chain: UCCUCCUACAGCUUGCAUAGAAUUUAGAUA
class name: false
--
sequence chain: UCCUGGAUGUGCUUAGCAUAGUAUUUAGUUA
class name: false
--
sequence chain: UCCUGGAUGAGCUUCCAUAGUAUUUAGUUA
class name: false
--
sequence chain: UCCUGGUUCAGCUUGCAUAGUAUUUAGAAA
class name: false
--
sequence chain: UCCUGGUUCAGGUUGCAUAGUAUUUAGUUA
class name: true
--
sequence chain: UCCUGGAUCAGGUUGCAUAGUAUUUAGAUA
class name: false
--
sequence chain: UCCUGGAUGAGCUUGCAUAGUAUUUAGUUU [g2:g21:cont:t1U]
class name: true
--
sequence chain: UCCUGGAUCUGCUUGCAUAGUAAUUAGUUA
class name: true
--
sequence chain: UCCUGGAUCUGGUUGCAUAGUAUUUAGUUA
class name: true
--
sequence chain: UCCUGGUACAGCUUGCAUAGUAUUGAGUUA
class name: false
--
sequence chain: UCCUGGUACAGCUUGCAUAGUUAUUAGUAA
class name: true
--
sequence chain: UCCUCCUACAGGUUGCAUAGUAUUUUCAAA
class name: false
--
sequence chain: UCCUCCUACAGCUAUGCAUAGUAUUUAGUUA
class name: true
--
sequence chain: UCCUGCAACAGCUUGCAUAGUAUAUAGUUA
class name: true
--
sequence chain: UCCUGGAUCAGCUUCCAUAGUAUUUAGAUA
class name: false
--
sequence chain: UCCUGGUACAGCUUGCUUAGUAUUAAGUUA
class name: false
--
sequence chain: UCCUGGAUGUCGGUGCAUAGUAUUUAGUUA
class name: false
--
sequence chain: UCCUGCUACAGGUUGCAUAGUUUUUAGUUA
class name: true
--
sequence chain: UCCUGGAUGUGCUUGCAUAGUAUUUAUUA
class name: false
--
sequence chain: UCCUCCAUCAGCUUGCAUAGUAUUUAGUAA
class name: true
--
sequence chain: UCCUGCUAGAGCUUGGAUAGUAUUUAGUUA
class name: false
--
sequence chain: UCCUCCUACAGUUGCAUAGUAUUUAGUUA
class name: true
--
sequence chain: UCCUGCUACAGCUUGCAUAGUUAUUAGUAA
class name: false
--
sequence chain: UCCUGGAUCAGCUUGCAUAGUAUUAUGUUA
class name: false
--
sequence chain: UCCUGGUACAGCUUACAUAGUAUUUAGUUA
class name: true
--
sequence chain: UCCUGGAACAGCUUGCAUAGUAUUUAUUUA
class name: false
--
sequence chain: UCCUGGUUCAGCUUGCUUAGUAUUUAGUUA
class name: true
--
sequence chain: UCCUCCUACAGCUUGCAUAGUAUUUAGUUC [g2:g26:cont:t1C]
class name: true
--
sequence chain: UCCUGGAUCUGCUUGGAUAGUAUUUAGUUA
class name: true
--
sequence chain: UCCUGGAUCAGGUUGCAUUGUAUUUAGUUA
class name: false
--
sequence chain: UCCUGCUACAGCUUGCAUAGUAUUUACAUA
class name: false
--
sequence chain: UCCUGCUACAGCUUGCAUAGUAUUUAUGUUA
class name: false
--
sequence chain: UCCUGCUACAGCUUGCAUACGUAUUUAGUUA
class name: false
--
sequence chain: UCCUGGUAGAGCUUGCAUAGUAUUAAGUUA
class name: false
--
sequence chain: UCCUCGUACAGCUUGCAUAGUAUUUUCAAA
class name: false
--
sequence chain: UCCUCCUACAGCUUGCAAACUAUUUAGUUA
class name: true
--
sequence chain: UCCUGGAUCAGCAUGCAUAGUAUAUAGUUA
class name: false
--
sequence chain: UCCUGGUACAGCUUGCUUAGUAUUUAGUUA
class name: true
--
sequence chain: UCCUGCUACAGCUUGCAUAGUUAUUAGAAA
class name: false
--
sequence chain: UCCUCCUACAGGUUGCAUAGUAAUUAGUUA
class name: true
--
sequence chain: UCCUGGUACAGCUUGCAAACUAUUUAGUUA
class name: false
--
sequence chain: UCCUCCUACAGCAACCAUAGUAUUUAGUUA
class name: false
--
sequence chain: UCCUGGUAGAGCUUGCAUAGUAUAUAGUUA
class name: true
--
sequence chain: UCCUGGAUCAGCUCGCAUAGUAUUUAGUUA
class name: true
--
sequence chain: UCCUCGAACAGCUUGCAUAGUAUUUACAAA
class name: false
--
sequence chain: UCCUGGAACAGCUGGCAUAGUAUUUAGUUA
class name: true
--
sequence chain: UCCUGGAUGUGCAAGCAUAGUAUUUAGAAA
class name: false

The origin of these recorded values is the supplement of paper PMC10338343.
